Assay Method Text: Kidney drug distribution and kidney-plasma ratios (HPLC)
Type: in vivo, mice
Condition Info: female, DBA-2, mouse, kidney, iv, 50 mg kg-1, 50 mg kg-1 i.v.; read-out: kidney-plasma ratio, equilibrium at 2 h
Readout: Kp at 2 h

[ask] Name the recorded Kp at 2 h for C#CCN(Cc1cc2c(=O)[nH]c(C)nc2cc1C)c1ccc(C(=O)N[C@@H](CCc2nnn[nH]2)C(=O)O)c(F)c1 [ZD9331] .
[reply] 2 to 3

###

Assay Method Text: Plasma pharmacokinetics of ZD9331 (HPLC, non-compartmental)
Assay type: in vivo, mice
Condition Info: female, DBA-2, mouse, plasma, ip; 50 mg kg-1; read-out: i.p. bioavailability
Readout: bioavailability (%)
Give the number; % is assumed, so skip it.

[ask] Given the molecule "C#CCN(Cc1cc2c(=O)[nH]c(C)nc2cc1C)c1ccc(C(=O)N[C@@H](CCc2nnn[nH]2)C(=O)O)c(F)c1" , what is its reported bioavailability?
[reply] 80

###

Assay Method Text: Kidney drug distribution and kidney-plasma ratios (HPLC)
Assay type: in vivo, mice
Condition Info: female, mouse, ip; kidney, DBA-2 mice, 200 mg kg-1 i.p.
Method: British Journal of Cancer (1998) 78(11), 1457-1463 ? […] In contrast to Tomudex (ZD1694), ZD9331 may therefore be active against tumours with low FPGS activity. […] Renal function was assessed by measuring [14C]inulin clearance, and drug concentrations were assayed by reverse-phase high-performance liquid chromatography (HPLC). […] These adverse effects can be readily overcome by i.p. administration, indicating the likely need for short infusions in clinical settings. […]
Readout: Tmax (min)
Unit min implied. Number only.

[ask] Reported Tmax, compound C#CCN(Cc1cc2c(=O)[nH]c(C)nc2cc1C)c1ccc(C(=O)N[C@@H](CCc2nnn[nH]2)C(=O)O)c(F)c1 [ZD9331] : ____
[reply] 30

###

Assay Method Text: Plasma pharmacokinetics of ZD9331 (HPLC, non-compartmental)
Format: in vivo, mice
Condition Info: female, DBA-2, mouse, plasma, ip, 200 mg/kg, plasma, DBA-2 mice, 200 mg kg-1 i.p.; read-out: t1/2
Readout: half-life
A bare number is not enough; add the unit after it.

[ask] Consider the molecule shown here: "C#CCN(Cc1cc2c(=O)[nH]c(C)nc2cc1C)c1ccc(C(=O)N[C@@H](CCc2nnn[nH]2)C(=O)O)c(F)c1" What is its recorded half-life?
[reply] 1.65 h

###

Assay Method Text: Plasma pharmacokinetics of ZD9331 (HPLC, non-compartmental)
Format: in vivo, mice
Condition Info: female, DBA-2, mouse, plasma, ip; 50 mg kg-1 i.p.; read-out: plasma drug concentration at 4 h
Readout: concentration at 4 h (nM)
State just the number; it will be interpreted in nM.

[ask] Would you mind telling me what concentration at 4 h value was observed for "C#CCN(Cc1cc2c(=O)[nH]c(C)nc2cc1C)c1ccc(C(=O)N[C@@H](CCc2nnn[nH]2)C(=O)O)c(F)c1" ?
[reply] 1000

###

Assay Method Text: Plasma pharmacokinetics of ZD9331 (HPLC, non-compartmental)
Assay type: in vivo, mice
Condition Info: female, DBA-2, mouse, plasma, iv, 100 mg/kg, plasma, DBA-2 mice, 100 mg kg-1 i.v. bolus; read-out: t1/2
Readout: half-life (h)
# value in h; strip the unit string

[ask] Consider the compound "C#CCN(Cc1cc2c(=O)[nH]c(C)nc2cc1C)c1ccc(C(=O)N[C@@H](CCc2nnn[nH]2)C(=O)O)c(F)c1" and give its measured half-life.
[reply] 1.53

###

Assay Method Text: Plasma pharmacokinetics of ZD9331 (HPLC, non-compartmental)
Format: in vivo, mice
Condition Info: female, DBA-2, mouse, plasma, iv; 200 mg kg-1 i.v.; read-out: plasma drug concentration at 4 h
Readout: concentration at 4 h (nM)
Provide only the numeric value, understood in nM.

[ask] Looking for the measured concentration at 4 h of "C#CCN(Cc1cc2c(=O)[nH]c(C)nc2cc1C)c1ccc(C(=O)N[C@@H](CCc2nnn[nH]2)C(=O)O)c(F)c1" , can you help?
[reply] 1300

###

Assay Method Text: Plasma pharmacokinetics of ZD9331 (HPLC, non-compartmental)
Type: in vivo, mice
Condition Info: female, DBA-2, mouse, plasma, ip, 200 mg/kg, plasma, DBA-2 mice, 200 mg kg-1 i.p.; read-out: AUC0-8h
Experimental: British Journal of Cancer (1998) 78(11), 1457-1463 ? […] In contrast to Tomudex (ZD1694), ZD9331 may therefore be active against tumours with low FPGS activity. […] Renal function was assessed by measuring [14C]inulin clearance, and drug concentrations were assayed by reverse-phase high-performance liquid chromatography (HPLC). […] These adverse effects can be readily overcome by i.p. administration, indicating the likely need for short infusions in clinical settings. […]
Readout: AUC(0-t)
Answer format: number, then unit.

[ask] Recorded AUC(0-t) for C#CCN(Cc1cc2c(=O)[nH]c(C)nc2cc1C)c1ccc(C(=O)N[C@@H](CCc2nnn[nH]2)C(=O)O)c(F)c1 [ZD9331] , please?
[reply] 315 µM·h

###

Assay Method Text: Plasma pharmacokinetics of ZD9331 (HPLC, non-compartmental)
Assay type: in vivo, mice
Condition Info: female, DBA-2, mouse, plasma, ip; 200 mg kg-1 i.p.; read-out: plasma drug concentration at 4 h
Readout: concentration at 4 h
Respond with the figure and its unit, in that order.

[ask] Query: concentration at 4 h; subject: "C#CCN(Cc1cc2c(=O)[nH]c(C)nc2cc1C)c1ccc(C(=O)N[C@@H](CCc2nnn[nH]2)C(=O)O)c(F)c1"
[reply] 1860 nM
